Reported kd var/kd wt is given for each of the following binders.
Molecular target: T1, human TGFβ3 (human, UniProt P10600 301-412)
T1 sequence: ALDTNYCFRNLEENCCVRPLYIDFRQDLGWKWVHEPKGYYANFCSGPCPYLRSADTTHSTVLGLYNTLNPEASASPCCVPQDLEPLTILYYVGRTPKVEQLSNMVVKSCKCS
Test: Biacore off-rate vs wt GC1008, 50 nM
Reply: number alone, nothing else.

Examples with answers:
INSERT INTO results (binder, quantitative_readout) VALUES
  ('V55F (antibody, V domains shown, GC1008 IgG4 variant) VH: QVQLVQSGAEVKKPGSSVKVSCKASGYTFSSNVISWVRQAPGQGLEWMGGVIPIFDIANYAQRFKGRVTITADESTSTTYMELSSLRSEDTAVYYCASTLGLVLDAMDYWGQGTLVTVSS VL: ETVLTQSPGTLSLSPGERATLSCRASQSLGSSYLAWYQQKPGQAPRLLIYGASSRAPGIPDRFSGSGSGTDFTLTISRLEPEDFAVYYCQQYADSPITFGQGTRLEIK', 1.2),
  ('S31Q (antibody, V domains shown, GC1008 IgG4 variant) VH: QVQLVQSGAEVKKPGSSVKVSCKASGYTFSQNVISWVRQAPGQGLEWMGGVIPIVDIANYAQRFKGRVTITADESTSTTYMELSSLRSEDTAVYYCASTLGLVLDAMDYWGQGTLVTVSS VL: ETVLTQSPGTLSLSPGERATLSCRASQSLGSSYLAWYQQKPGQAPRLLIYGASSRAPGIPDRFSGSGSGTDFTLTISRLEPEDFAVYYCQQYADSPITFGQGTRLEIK', 1);

Next binder, please.
Return kd var/kd wt for the following binder: N32T (antibody, V domains shown, GC1008 IgG4 variant) VH: QVQLVQSGAEVKKPGSSVKVSCKASGYTFSSTVISWVRQAPGQGLEWMGGVIPIVDIANYAQRFKGRVTITADESTSTTYMELSSLRSEDTAVYYCASTLGLVLDAMDYWGQGTLVTVSS VL: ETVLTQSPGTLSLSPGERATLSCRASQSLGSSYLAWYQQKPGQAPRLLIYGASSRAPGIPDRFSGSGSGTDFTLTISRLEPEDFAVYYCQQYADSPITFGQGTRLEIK
1.1
